test system: PC-3 prostate; test: NCI tumour cell line growth inhibition, 48 h
reportedMetric: TGI (µM)
Please respond with the number in µM and leave the unit unwritten.

Recorded TGI of CCOC(=O)[C@@H](C)C[C@H](Cc1ccccc1)NC(=O)c1csc([C@@H](C[C@H](C(C)C)N(C)C(=O)[C@H](CCC(C)C)NC(=O)[C@H]2CCCCN2C)OC(C)=O)n1 , please.
7.15

Recorded TGI of Cc1cc(S(=O)(=O)NC#N)c(S/C(=N\Nc2ccc([N+](=O)[O-])cc2)c2ccccc2)cc1Cl , please.
57.1

---

Assign TGI to each entry below.
system: SF-268 CNS; assay: NCI tumour cell line growth inhibition, 48 h

Recorded TGI of Cc1cc2c(C(N)=O)cccc2n1-c1nc2c(c(NCc3ccccc3)n1)CCCN2 , please.
0.487 µM

Recorded TGI of COC(=O)c1ccc(NCC2=CC(=O)c3ccccc3C2=O)cc1 , please.
66.2 µM

Recorded TGI of Cc1nn2c(/C=C3/C(=O)Nc4ccccc43)c(-c3ccc(Cl)cc3)nc2s1 , please.
> 50 µM

Recorded TGI of Cc1ccc(NC(=S)NNC(=O)c2cc(-c3ccccc3)nc3ccccc23)cc1C , please.
> 100 µM

Recorded TGI of Cc1cc2nc3c(C(O)CO)nn(-c4ccccc4)c3nc2cc1C (stereo not drawn) , please.
63.3 µM

Recorded TGI of CSCCCNC(=O)c1csc([C@@H](CSC)NC(=O)CCNC(=O)[C@@H](NC(=O)OCC(Br)(Br)Br)C(C)O)n1 (stereo partly drawn) , please.
> 100 µM

Recorded TGI of O=C(O)c1ccc([N+](=O)[O-])c2c(=O)c3ccccc3[nH]c12 , please.
> 100 µM

Recorded TGI of CCO[C@H]1C[C@@H](c2ccccc2)[C@]2(C)C[C@H](C(=O)OC)ON2O1 , please.
> 100 µM

Recorded TGI of COc1cccc(NC(=O)N/C(=C/c2ccc(N(CCC#N)CCC#N)cc2)NC(=O)c2cc([N+](=O)[O-])ccc2Cl)c1 , please.
> 100 µM

Recorded TGI of CN(C)CCNC(=O)c1cc([N+](=O)[O-])ccn1 , please.
70.7 µM

Recorded TGI of O=C1C(Cl)=C(N2CCOCC2)C(=O)c2ccccc21 , please.
16.8 µM

Recorded TGI of O=C(N/N=C/c1cc(Br)cc(Br)c1[O-])c1ccccc1O.O=C(N/N=C/c1cc(Br)cc(Br)c1[O-])c1ccccc1O.[Mn+2] , please.
10.6 µM

Recorded TGI of COC(=O)[C@H]1ON2O[C@@H](O[C@H]3CCCC[C@@H]3C(C)(C)c3ccccc3)C[C@@H]3CC[C@H]1[C@@]32C , please.
> 100 µM

Recorded TGI of CCCCCC(/C=N/NC(N)=S)C(O)(C(F)(F)F)C(F)(F)F (stereo not drawn) , please.
> 10 µM

Recorded TGI of C=CCOc1ccc(C2c3c([nH][nH]c3=O)CC(C)(O)C2C(=O)OC)cc1OC (stereo not drawn) , please.
> 100 µM

Recorded TGI of O=C(O)c1cc2c(cc1S(=O)(=O)O)C1C(C3C2C2(Cl)C(Cl)=C(Cl)C3(Cl)C2(Cl)Cl)C2(Cl)C(Cl)=C(Cl)C1(Cl)C2(Cl)Cl (stereo not drawn) , please.
> 100 µM

Recorded TGI of CCc1ccc(CCC(=O)Nc2ncc(Cc3ccccc3)s2)o1 , please.
> 100 µM

Recorded TGI of c1cncc(C(Nc2cccc3cccnc23)Nc2cccc3cccnc23)c1 , please.
> 100 µM

---

Assign TGI to each entry below.
test system: HOP-62 NSCLC; experiment: NCI tumour cell line growth inhibition, 48 h

Recorded TGI of Cc1ccc(NNc2cc(=O)[nH]c(=O)[nH]2)cc1Cl , please.
> 100 µM

Recorded TGI of CCN(CC)C(=S)N/N=C(\C)c1ccccc1O , please.
> 100 µM

Recorded TGI of O=C(CN=C(CN(c1ccccc1)c1ccccc1)Oc1c([N+](=O)[O-])cc([N+](=O)[O-])cc1[N+](=O)[O-])N1CCNCC1 , please.
> 100 µM

Recorded TGI of Cc1ccc(S(=O)(=O)OCC23CCC(C4CC42)C2CC23)cc1 (stereo not drawn) , please.
> 100 µM

Recorded TGI of Cc1nn2c(/C=C3/C(=O)Nc4ccccc43)c(-c3ccc(Cl)cc3)nc2s1 , please.
> 50 µM

Recorded TGI of COc1ccc(/C=C2\CNC/C(=C\c3ccc(OC)cc3)C2=O)cc1 , please.
> 100 µM

Recorded TGI of CCOC(=O)/C=C/[C@H](O[Si](c1ccccc1)(c1ccccc1)c1ccccc1)C(C)(C)C , please.
> 31.6 µM

Recorded TGI of COC(=O)CC1(O)C(C=C(C)C)C(C(=O)OC)C(=O)C(C(=O)OC)C1C(=O)OC (stereo not drawn) , please.
> 100 µM

---

Assign TGI to each entry below.
tested on: ACHN renal; experiment: NCI tumour cell line growth inhibition, 48 h
Please respond with the number in µM and leave the unit unwritten.

Recorded TGI of N#CSCC1CC(O)(c2ccccc2)C(c2ccccc2)C(c2ccc(F)cc2)O1 (stereo unspecified) , please.
11.4

Recorded TGI of C=C1C(=O)O[C@@H]2C[C@@H](C)[C@@H]3[C@@H](OC4OC(COC(C)=O)C(O)C(O)C4O)CC(=O)[C@@]3(C)C[C@H]12 (stereo partly specified) , please.
0.987

Recorded TGI of CCOP(=O)(OCC)C(Cc1ccccc1)N=C(c1ccccc1)c1ccccc1 (stereo unspecified) , please.
28.6

Recorded TGI of Cc1cc(N/N=C/c2nc(-c3ccccc3)oc2C)c2cc(Cl)ccc2n1 , please.
3.14

Recorded TGI of COc1cccc(/C=C/C(=O)c2cc3c(N)c(C(=O)Nc4cccc(Cl)c4C)sc3nc2C)c1 , please.
1.95

Recorded TGI of Cc1nn2c(/C=C3/C(=O)Nc4ccccc43)c(-c3ccc(Cl)cc3)nc2s1 , please.
20

Recorded TGI of COC1CC(OS(=O)(=O)c2ccc(C)cc2)C(OS(=O)(=O)c2ccc(C)cc2)C(COS(=O)(=O)c2ccc(C)cc2)O1 (stereo unspecified) , please.
12.7

Recorded TGI of Cc1cc2c(C(N)=O)cccc2n1-c1nc2c(c(NCc3ccccc3)n1)CCCN2 , please.
0.791

Recorded TGI of O=C(COC(=O)c1ccccc1)c1ccc(Br)cc1 , please.
65.9

---

tested on: HS 578T breast; experiment: NCI tumour cell line growth inhibition, 48 h
Assign TGI to each entry below.

Recorded TGI of Cc1ccc(N2C(=O)CC(=O)N(NC(=O)C(C)Oc3ccccc3C)C2=S)cc1 (stereo unspecified) , please.
> 100 µM

Recorded TGI of CC1=NN(C(=O)CC(=O)Nc2cccc(Cl)c2)C(=O)C1N=Nc1ccc(S(=O)(=O)c2ccc(N=NC3C(=O)N(C(=O)CC(=O)Nc4cccc(Cl)c4)N=C3C)cc2)cc1 (stereo unspecified) , please.
> 100 µM

Recorded TGI of CN(C)CCCNC(=O)CNC(=O)c1cc(NC(=O)c2cc(NC(=O)c3cc(NC(=O)CCNC(=O)c4cc(NC(=O)c5cc(NC(=O)c6nccn6C)cn5C)cn4C)cn3C)cn2C)cn1C , please.
> 100 µM

Recorded TGI of COc1ncc(C#CC(=O)c2ccccc2OC)c(OC)n1 , please.
> 32.4 µM

Recorded TGI of CC1(C)OC[C@@]2([C@@H]3CC[C@@H](C3)C2(C)C)N1O , please.
> 100 µM

Recorded TGI of O=C(CN=C(CN(c1ccccc1)c1ccccc1)Oc1c([N+](=O)[O-])cc([N+](=O)[O-])cc1[N+](=O)[O-])N1CCNCC1 , please.
> 100 µM

---

test system: NCI-H23 lung; experiment: NCI tumour cell line growth inhibition, 48 h
reportedMetric: TGI

Recorded TGI of COc1cccc(NC(=O)N/C(=C/c2ccc(N(CCC#N)CCC#N)cc2)NC(=O)c2cc([N+](=O)[O-])ccc2Cl)c1 , please.
> 100 µM

Recorded TGI of COc1ccccc1/C=C1/Sc2scc(CC(=O)Nc3ccccc3)[n+]2C1=O , please.
> 100 µM

Recorded TGI of COC1=C(C(=O)OC(C)(C)C)[C@]2(C)C(C(=O)OC(C)(C)C)C(OC)=C(C(=O)OC(C)(C)C)[C@]2(C)C1C(=O)OC(C)(C)C (stereo partly drawn) , please.
> 100 µM

---

system: HCT-15 colon; assay: NCI tumour cell line growth inhibition, 48 h
reportedMetric: GI50

Recorded GI50 of Clc1cc(Cl)cc(N2N=C(c3cccc(Nc4ccncc4)c3)CC2c2ccc(Br)cc2)c1 (stereo not drawn) , please.
1.8 µM

Recorded GI50 of O=C(Nc1cc(Cl)ccc1O)c1cccc(NC2=C(Cl)C(=O)N(Cc3ccccc3)C2=O)c1 , please.
13.3 µM

Recorded GI50 of O=C(Nc1ccc(Nc2ccncc2)cc1)c1ccc(Nc2ccnc3ccc([N+](=O)[O-])cc23)cc1 , please.
> 100 µM

# credit: PubChem BioAssay (NCI)
